# test_description: hepatitis C replication reporter changes, two-sided – Huh7 cells, luciferase reporter, HCV replication inhibitor project, primary screen (AID 1109);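 note: huh7 hepatoma cells harbouring a luciferase neomycin HCV replicon reporter; luciferase luminescence as measure of HCV replicon replication; test concentration not given here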
# test_conditions: Huh7 HCV replicon luciferase reporter, 48 h; higher = more signal
Criterion: z-score meeting or surpassing -0.7. Met: Fulfilled. Not met: Not fulfilled.

Query: Item COC(=O)c1c(CC[C@@H](CO)NC(=O)NCCc2c[nH]c3ccccc23)oc(C(=O)Cc2ccccc2)c1C(=O)OC with z-score of -0.7 or above?
Response: Not fulfilled

Query: Field entry: COc1ccc(NN2C(C(O)c3ccc(N(C)C)cc3)C=CC3C(=O)N(C4CCCCC4)C(=O)C32)cc1 (stereo not given)
Response: Fulfilled

Query: Field entry: CCOC(=O)C1=CC[C@@H](c2ccccc2)N(S(=O)(=O)c2ccc(C)cc2)[C@H]1c1ccc(CC)cc1
Response: Not fulfilled

Query: Field entry: CN1CCC(CCCO)=CC1c1cccs1 (stereo not given)
Response: Fulfilled

* * *

# measurement_target: Homeobox protein Hox-A13 (Mus musculus) (UniProt Q62424)
# Sequence (Q62424 whole entry, looked up): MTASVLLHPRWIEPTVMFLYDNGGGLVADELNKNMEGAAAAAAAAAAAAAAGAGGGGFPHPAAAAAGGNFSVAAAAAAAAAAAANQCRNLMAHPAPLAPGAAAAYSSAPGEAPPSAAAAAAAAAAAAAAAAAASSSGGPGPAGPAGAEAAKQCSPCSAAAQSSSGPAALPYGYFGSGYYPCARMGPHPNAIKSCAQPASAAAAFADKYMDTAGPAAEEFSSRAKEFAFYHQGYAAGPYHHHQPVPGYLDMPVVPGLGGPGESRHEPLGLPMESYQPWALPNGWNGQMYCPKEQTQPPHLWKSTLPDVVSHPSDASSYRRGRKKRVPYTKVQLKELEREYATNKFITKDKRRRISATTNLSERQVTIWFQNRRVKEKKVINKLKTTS
# test_description: disruptors of Hoxa13 oligonucleotide interaction – biochemical, fluorescence polarization, labeled oligonucleotide, primary screen (AID 1185)
# test_conditions: Hoxa13:DNA binding, 15 min, called active from +8 up or from −8 down
Calls of active or inactive are those of the source.
The reply should be one of these categories: Yes = active, No = inactive

Query: Could you please tell me the result logged for O=C(NC1CC1)[C@@H]1c2ccccc2C(=O)N(C2Cc3ccccc3C2)[C@H]1c1ccc(CO)cc1 in this assay?
Response: No

Query: Field entry: COc1ccc(NN2C(C(O)c3ccc(N(C)C)cc3)C=CC3C(=O)N(C4CCCCC4)C(=O)C32)cc1 (stereo unspecified)
Response: No

Query: Field entry: CC(=O)NCCCC[C@@H]1NC(=O)[C@H]2C[C@@H](C(=O)NCCCCCNC(=O)CS)[C@@H](c3ccc(O)cc3)N2C1=O
Response: No

Query: Field entry: CCN(CC)c1ccc(N2CC=CC34O[C@@H]5C=CCOC(=O)[C@@H]5[C@H]3C(=O)N(CCCCCCO)[C@@H]4C2=O)cc1 (stereo partly specified)
Response: No

Query: Field entry: CN1C(=O)C2C=CC(C(O)c3ccccc3)N(N3CCCCC3)C2C1=O (stereo unspecified)
Response: No

Query: Field entry: [N-]=[N+]=NCc1ccccc1[C@@H]1OC(c2ccc(OCCCO)cc2)=N[C@]1(CCS(=O)(=O)c1ccccc1)C(N)=O
Response: No

Query: Field entry: C#CCN1[C@@H](Cc2ccc(O)cc2)C(=O)O[C@H](Cc2ccccc2)[C@@H]1/C=C/C1CC1
Response: No

Query: Field entry: CC(C)NC(=O)[C@@]1(Cc2ccccc2I)c2ccccc2C(=O)N(Cc2ccccc2Cl)[C@H]1c1ccc(CO)cc1
Response: No

Query: Field entry: COc1ccc(C(=O)Nc2ccc(CN3C(=O)[C@]4(O[C@H](CC(=O)N5CCC[C@H]5CO)[C@@H]([Si](C)(C)c5ccc(OC)cc5)[C@@H]4C)c4ccccc43)cc2)cc1
Response: No

Query: Field entry: [N-]=[N+]=Nc1ccccc1[C@H]1OC(c2ccc(OCCCO)cc2)=N[C@@]1(Cc1ccccc1)C(=O)N1CCOCC1
Response: No

Query: Field entry: CCCCC(=C=CC[C@@H](O)c1cccc(OCCO)c1)C[C@@H](O)c1ccccn1
Response: No

Query: Field entry: COCCOC(=O)N1C(=O)[C@@]2(c3ccccc31)[C@H](C(=O)N1CCCCCCC1)[C@H]1C(=O)O[C@H](c3ccccc3)[C@H](c3ccccc3)N1[C@@H]2c1ccc(OCCO)cc1
Response: Yes

Query: Field entry: CCOC(=O)C1=C[C@@H](C(C)C)N(S(=O)(=O)c2ccc(C)cc2)[C@H]1c1ccccc1F
Response: No

Query: Field entry: O=C(O)C1N=C(c2ccc(OCCCO)cc2)N(c2ccccc2)O1 (stereo unspecified)
Response: No

Query: Field entry: COC(=O)c1c(CC[C@@H](CO)NC(=O)N[C@@H](Cc2ccccc2)Cn2cc(-c3ccccn3)nn2)oc(C(=O)N2CCOCC2)c1C(=O)OC
Response: No

Query: Field entry: COc1cc(CO)cc(I)c1O[C@H]1C=C(C(=O)NCCO)C[C@@H](NC[C@@H]2CCCO2)[C@@H]1O
Response: No

Query: Field entry: CCCC[C@H]1C[C@@H]1[C@@H]1N(P(=O)(c2ccccc2)c2ccccc2)C[C@@](O)(c2ccccc2)CC12CC2
Response: No

Query: Field entry: O=C1NC(=O)C2C1C=CC(C(O)c1ccc(I)cc1)N2Nc1ccccn1 (stereo unspecified)
Response: No

Query: Field entry: O=C1[C@@]23C=C(Br)[C@H](C[C@@H]2COC3)[C@]12CO2
Response: No

Query: Field entry: CCCCCN1CC=CC23O[C@@H]4C=CCOC(=O)[C@@H]4[C@H]2C(=O)N(C(C)CO)[C@@H]3C1=O (stereo partly specified)
Response: No

Query: Field entry: COC(=O)[C@@]1(Cc2ccc(OC)cc2)[C@H]2c3cc(C(=O)N4CCCC4)n(Cc4nc5ccccc5[nH]4)c3C[C@H]2CN1C(=O)c1ccccc1
Response: No

Query: Field entry: COC(=O)[C@@]1(Cc2ccc(F)cc2)[C@H]2c3cc(C(=O)N(C)C)n(Cc4ccc(C)o4)c3C[C@H]2CN1C(=O)c1ccccc1
Response: No

Query: Field entry: CCCC[C@@H]1C[C@H]1[C@@H](NC(=O)c1cccnc1)c1ccc(Cl)cc1
Response: No

Query: Field entry: CC#CC(=O)Oc1ccc(Br)cc1C=CC(=O)OCC
Response: No

Query: Field entry: COC(=O)[C@@]1(Cc2ccc(OC)cc2)[C@H]2c3cc(C(=O)N4CCCC4)n(CCCNc4ncc(C(F)(F)F)cc4Cl)c3C[C@H]2CN1C(=O)c1ccccc1
Response: No

Query: Field entry: C=CCC(OC(C)=O)[C@@H]1[C@@H](N(Cc2ccc(-c3ccccc3)cc2)C(=O)Cc2ccc(F)cc2)c2cc(OCCCO)ccc2N1C(=O)c1ccc2ccccc2c1 (stereo partly specified)
Response: No

Query: Field entry: O=C(O)[C@H]1C[C@H]2C(=O)N3CCC[C@H]3C(=O)N2[C@H]1c1ccc(O)cc1
Response: No

Query: Field entry: CC(C)N1CC=CC23O[C@@H]4C=CCOC(=O)[C@@H]4[C@H]2C(=O)N(CCCCCO)[C@@H]3C1=O (stereo partly specified)
Response: No

Query: Field entry: COC(=O)[C@@]1(Cc2ccccc2)[C@H]2c3cc(C(=O)N4CCCC4)n(Cc4c(CO)[nH]cc(C)c4=O)c3C[C@H]2CN1C(=O)c1ccccc1
Response: No

Query: Field entry: COc1ccc(NC(=O)O[C@H]2[C@H](OC(=O)c3cc4ccccc4[nH]3)[C@@H](OC(=O)c3cc4ccccc4[nH]3)[C@@H](OC)O[C@@H]2CO)cc1
Response: No

Query: Field entry: CC(C)[Si](C#C[Si](C(C)C)(C(C)C)C(C)C)(O[C@H](C)c1cn(Cc2ccccc2)nn1)C(C)C
Response: No

* * *

# test_description: compound effects on hepatocellular carcinoma cell viability – HepG2, calcein-AM fluorescence, 48 h, basal, profiling panel (AID 1164); note: test concentration not given here
# test_conditions: higher = more signal
Consider the following compounds; for each one, report its z-score.
// print number alone

Query: What value of z-score has been reported for the following compound? O=C1C2C=CC(C(O)c3ccc(F)cc3)N(Nc3ccc([N+](=O)[O-])cc3)C2C(=O)N1c1ccccc1 (stereo unspecified)
Response: 0.679

Query: Field entry: O=C1[C@H]2C=C(Br)[C@H](C[C@@H]2OCCCCCCO)[C@@]12CO2
Response: -0.339

Query: Field entry: COC(=O)[C@@]1(Cc2ccccc2)[C@H]2c3cc(C(=O)N(C)C)n(Cc4ccc(OC)c(OC)c4)c3C[C@H]2CN1C(=O)c1ccccc1
Response: 0.148

Query: Field entry: CC(=O)n1cc(C(O)C2C=CC3C(=O)NC(=O)C3N2Nc2ccccn2)c2ccccc21 (stereo unspecified)
Response: -0.252

Query: Field entry: CCCCN1CC=CC23O[C@@H]4/C=C\CCCOC(=O)C4[C@H]2C(=O)N(CCCO)[C@@H]3C1=O (stereo partly specified)
Response: 0.186

Query: Field entry: CC(=O)Nc1cc(Br)ccc1C(=O)NCc1ccccc1
Response: -0.0731

Query: Field entry: NCCCCCNC(=O)[C@H]1C[C@H]2C(=O)N3CCC[C@H]3C(=O)N2[C@H]1c1ccc(O)cc1
Response: -0.0476

Query: Field entry: COC(=O)c1c(CC[C@@H](CO)NC(=O)N[C@@H](Cc2ccccc2)Cn2cc(-c3ccccn3)nn2)oc(C(=O)N2CCOCC2)c1C(=O)OC
Response: -1.31

Query: Field entry: COCCCNC(=O)[C@@]1(Cc2ccccc2CN=[N+]=[N-])N=C(c2ccc(OCCCO)cc2)O[C@H]1c1ccccc1CN=[N+]=[N-]
Response: -0.983

Query: Field entry: Cc1c(NC(=O)/C(C#N)=C/c2cccc([N+](=O)[O-])c2)c(=O)n(-c2ccccc2)n1C
Response: 0.461

Query: Field entry: NC(=O)[C@@H]1[C@H]2C(=O)O[C@H](c3ccccc3)[C@H](c3ccccc3)N2[C@H](c2ccc(O)cc2)[C@@]12C(=O)Nc1ccc(C#CC3=CCCCC3)cc12
Response: -5.06

Query: Field entry: CCOc1cc(C(O)C2C=CC3C(=O)N(c4ccccc4)C(=O)C3N2Nc2ccc(C(C)C)cc2)ccc1O (stereo unspecified)
Response: -0.159

Query: Field entry: [N-]=[N+]=NCc1ccccc1[C@@H]1OC(c2ccc(OCCCO)cc2)=N[C@]1(CCS(=O)(=O)c1ccccc1)C(=O)N1CCCCC1
Response: 1.43

Query: Field entry: Cc1ccc(S(=O)(=O)N2C[C@@H](C(=O)O)[C@H](Sc3ccccc3)C[C@H]2c2ccccc2)cc1
Response: -0.721

Query: Field entry: C=CC[C@]1(C(=O)NCc2ccccc2)N=C(c2ccc(OCCCO)cc2)O[C@H]1c1ccccc1CN=[N+]=[N-]
Response: 0.22

Query: Field entry: O=C1NC(=O)C2C1C=CC(C(O)c1ccc(I)cc1)N2Nc1ccc(Cl)cc1Cl (stereo unspecified)
Response: -0.363
